Assignment: determine reported % inhibition for the given binders.
# target of assay: T1, recombinant human EGFR extracellular domain with 6xHis (human, UniProt P00533 25-645)
# T1 construct: In-house produced; also called 6xHis EGFR ECD; soluble human EGFR ECD; not shown: 6xHis tag
# protocol: SPR competition, competitor Ab-5
Answers are plain numbers, in %.

binder: antibody 1347 (antibody, human IgG1, kappa, V domains shown, Chimeric IgG1 kappa) VH: QVQLKESGPGLVAPSQSLSITCTVSGFSLTGHGVNWVRQPPGKGLEWLGMIWGDGSTDYNSTLKSRLSISKDNSKSQVFLKMNSLQTDDTARYYCARGYGYLYYFDYWGQGTTLTVSS VL: ENVLTQSPAIMSASPGEKVTMTCRASSSVSSSYLHWYQQKSGASPKLWIYSTSNLASGVPARFSGSGSGTSYSLTVNSVETEDAATYYCHQYSGFPFTFGSGTKLELKR
numeric readout: -1

binder: antibody 1320 (antibody, human IgG1, kappa, V domains shown, Chimeric IgG1 kappa) VH: QVQLQQPGAELVKPGASMKLSCKASGYTFTNYWMHWVKQRPGQGLEWIGEINPSNGRTNYNEKFKSKATLTVDKSSSTAYMQLSSLTSEDSGVYYCAKGGNYYDYDWDYWGQGTTLTVSS VL: DIQMTQTTSSLSASLGDRVTISCSASQDISNYLNWYQQKPDGTVKLLIYHTSTLHSGVPSRFSGSGSGTDYSLTISNLEPEDIATYYCQQYSKLPWTFGGGTKLEIKR
numeric readout: -3

API: the following record is the query input.
Quick one: % inhibition for antibody 1024 (antibody, human IgG1, kappa, V domains shown, Chimeric IgG1 kappa) VH: QVQLQQPGAELVEPGGSVKLSCKASGYTFTSHWMHWVKQRPGQGLEWIGEINPSSGRNNYNEKFKSKATLTVDKSSSTAYMQFSSLTSEDSAVYYCVRYYGYDEAMDYWGQGTSVTVSS VL: DIVMTQAAFSNPVTLGTSASISCRSSKSLLHSNGITYLYWYLQKPGQSPQLLIYQMSNLASGVPDRFSSSGSGTDFTLRISRVEAEDVGVYYCAQNLELPYTFGGGTKLEIKR ?
0
